Below, each entry is listed alongside its reported Signal decrease.
systemName: T1, biotin-labeled human CD137 fused to human IgG1 Fc fragment (human, biotin-labeled)
T1 construct: also called human CD137-Fc; biotin-human CD137-Fc; not shown: human IgG1 Fc fragment
experimentalProtocol: competitive ELISA on biotin-human CD137-Fc; free CD3e vs free Fc
# output: bare number, implied unit %

INSERT INTO measurements (binder, valuekind, obsvalue) VALUES
  ('dBBDu167/L094 (antibody, V domains shown, IgG format; constant regions not specified; also called dBBDu_167 dBBDu.L094) VH: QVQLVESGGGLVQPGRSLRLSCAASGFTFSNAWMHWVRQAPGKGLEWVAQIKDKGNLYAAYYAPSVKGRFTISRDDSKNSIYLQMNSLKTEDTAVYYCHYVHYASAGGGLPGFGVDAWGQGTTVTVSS VL: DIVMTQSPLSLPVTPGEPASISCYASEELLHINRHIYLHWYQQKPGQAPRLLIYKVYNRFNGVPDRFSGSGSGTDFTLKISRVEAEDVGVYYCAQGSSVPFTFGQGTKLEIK', 'Signal decrease', 96.9);

Lookup result for dBBDu186/L100 (antibody, V domains shown, IgG format; constant regions not specified) VH: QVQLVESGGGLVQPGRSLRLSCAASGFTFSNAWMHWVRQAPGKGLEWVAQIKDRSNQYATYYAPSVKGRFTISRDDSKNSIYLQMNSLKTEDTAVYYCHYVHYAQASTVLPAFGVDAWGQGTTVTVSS VL: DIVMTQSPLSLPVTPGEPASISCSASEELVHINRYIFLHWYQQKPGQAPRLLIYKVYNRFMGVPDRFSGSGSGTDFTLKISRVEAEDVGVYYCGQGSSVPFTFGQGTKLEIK ; measured Signal decrease: 13

Briefly, Signal decrease measured for dBBDu189/L126 (antibody, V domains shown, IgG format; constant regions not specified) VH: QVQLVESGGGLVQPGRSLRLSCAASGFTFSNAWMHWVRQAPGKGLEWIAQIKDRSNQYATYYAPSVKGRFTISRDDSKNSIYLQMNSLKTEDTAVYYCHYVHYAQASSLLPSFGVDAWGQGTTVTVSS VL: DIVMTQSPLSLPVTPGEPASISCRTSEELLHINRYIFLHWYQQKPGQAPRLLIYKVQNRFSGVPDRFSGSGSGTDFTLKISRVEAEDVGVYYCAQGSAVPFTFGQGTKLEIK : 87

// Signal decrease lookup, binder = dBBDu189/L119 (antibody, V domains shown, IgG format; constant regions not specified) VH: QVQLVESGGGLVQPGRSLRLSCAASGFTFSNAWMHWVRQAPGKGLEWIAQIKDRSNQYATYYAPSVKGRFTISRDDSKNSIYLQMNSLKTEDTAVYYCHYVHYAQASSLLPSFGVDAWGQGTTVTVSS VL: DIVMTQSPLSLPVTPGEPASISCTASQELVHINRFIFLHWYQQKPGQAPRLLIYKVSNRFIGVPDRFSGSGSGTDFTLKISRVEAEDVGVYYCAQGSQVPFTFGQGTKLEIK , result: 76.9

All figures here come from patent US20210388087A1.
